Tested on: Aβ42
experiment_description: Aβ42 release from HEK cells stably expressing APPswe (MSD electrochemiluminescence)
Assay type: cell-based, Human
reported_conditions: HEK cells expressing APPswe; 4-6 h incubation with test compound; Aβ42 secreted to cell medium
quantity_kind: pIC50
Note: pIC50 values are expressed as the negative base-10 logarithm of concentration in M.

Known results for compounds:
COc1nc(Nc2ccc3c(n2)OC(CC(F)(F)F)CN(C)C3)ccc1-c1cnn(C)c1 (single isomer, unassigned; (-)) [Example 5]
7.68
COc1nc(Nc2ccc3c(n2)OC(CCC(F)(F)F)CN(C)C3)ccc1-n1cnc(C)c1 (single isomer, unassigned; (-))
8.30
COc1nc(Nc2ccc3c(n2)OC(C2CC2)CN(C)C3C)ccc1-c1cnn(C)c1 (single isomer, unassigned) [Example 19]
6.91
COc1nc(Nc2ccc3c(n2)OC(c2nc(C)cs2)CN(C)C3)ccc1-c1cnn(C)c1 (single isomer, unassigned; (-)) [Example 11]
7.85
COc1nc(Nc2ccc3c(n2)OC(CC(F)(F)F)CN(C)C3C)ccc1-c1cnn(C)c1 (single isomer, unassigned) [Example 34]
7.80

IN: Determine from records and report pIC50 for COc1nc(Nc2ccc3c(n2)OC(c2ncc(C)s2)CN(C)C3)ccc1-n1cnc(C)c1 (single isomer, unassigned; (-)) [Example 65]
OUT: 8.05
